Where these numbers come from: paper PMC5540273

- Test system: CDK7;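 also: KINOMEscan kinase panel screen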
- RUN_CONDITIONS: concentration: 1 μM, replicates: in singlicate; n = 1
Measured %Inh, listed per entry for reference.
All answers are understood in %, so give the number only.

{"MOLECULE": "CNc1ncnc2[nH]ncc12 [SKF-18355]", "%Inh (%)": 0}
{"MOLECULE": "Cc1nnc(-c2ccc3occ(-c4ccc(C(C)O)cc4)c3c2)o1 (stereo not drawn)", "%Inh (%)": 17}
{"MOLECULE": "c1ccc(-c2cc(-c3c[nH]nc3-c3ccccn3)ccn2)cc1 [GW576604]", "%Inh (%)": 0}
{"MOLECULE": "COc1cc2c(cc1OCCN1CCN(C)CC1)ncc1c3ccc(C#N)cc3[nH]c21", "%Inh (%)": 99.7}

Given CN(C(=O)c1ccc(-c2cc(-c3c[nH]nc3-c3ccccn3)ccn2)cc1)C1CCOCC1 [GW810083] , state its recorded %Inh.
9

Find the recorded %Inh belonging to Cc1cn2c(=O)cc(N3CCOCC3)nc2n1Cc1cccc(Cl)c1Cl [GSK2334006] and report it.
0

Fill blank: measured %Inh of the molecule Fc1ccc(-c2ncn(CCCN3CCOCC3)c2-c2cccnc2)cc1 [SB-211743] is ____.
8

Which %Inh is listed for O=c1cc(N2CCOCC2)nc2n(Cc3cccc(C(F)(F)F)c3)ccn12 [GSK2297543] ?
0

Return reported %Inh; argument: CCCCCc1nc2c(N)ncnc2n1CCCCC [SKF-97255]
2
